tgt: human PAD4 (Homo sapiens, UniProt Q9UM07)
Construct: human PAD4 (NM_012387), A2-P663, was PCR amplified; His-SUMO (N, cleaved yes)
Sequence (Q9UM07 2-663): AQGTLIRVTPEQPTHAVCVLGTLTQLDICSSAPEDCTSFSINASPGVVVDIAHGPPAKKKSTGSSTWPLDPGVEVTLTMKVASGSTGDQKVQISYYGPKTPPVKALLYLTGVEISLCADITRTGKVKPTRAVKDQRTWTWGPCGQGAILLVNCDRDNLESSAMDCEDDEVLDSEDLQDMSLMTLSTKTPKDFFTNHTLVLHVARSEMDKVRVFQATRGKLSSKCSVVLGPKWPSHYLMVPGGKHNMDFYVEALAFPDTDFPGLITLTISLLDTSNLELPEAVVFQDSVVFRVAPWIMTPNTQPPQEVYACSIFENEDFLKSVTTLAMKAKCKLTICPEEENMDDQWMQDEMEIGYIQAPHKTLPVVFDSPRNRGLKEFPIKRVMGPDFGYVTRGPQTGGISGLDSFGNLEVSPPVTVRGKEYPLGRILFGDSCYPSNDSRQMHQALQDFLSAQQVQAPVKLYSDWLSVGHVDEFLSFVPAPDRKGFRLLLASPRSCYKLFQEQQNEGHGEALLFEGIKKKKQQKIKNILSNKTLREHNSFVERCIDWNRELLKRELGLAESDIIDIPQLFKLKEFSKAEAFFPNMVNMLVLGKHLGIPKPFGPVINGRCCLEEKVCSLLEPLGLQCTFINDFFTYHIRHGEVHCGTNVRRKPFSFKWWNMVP
experiment: In vitro PAD4 BAEE biochemical assay
conditionLabel: BAEE substrate 3 mM, 5 nM PAD4, 2 mM calcium chloride; geometric mean of multiple experiments
Each entry below carries its reported pIC50.
The scale used: pIC50 is minus the common logarithm of the concentration in molar units.

Reference set, count: 2
C[C@H]1NC(=O)[C@@H]2C[C@H]2CCCCCn2c(-c3nc4cc(C(=O)N[C@H]5CNCC[C@@H]5F)c(F)cc4n3CCC(N)=O)cc3ccc1nc32 = 7.54
C[C@H]1NC(=O)[C@@H]2C[C@H]2CCCC(F)(F)Cn2c(-c3nc4cc(C(=O)N5C[C@H](N)[C@@H]6CC[C@H]5C6)cc(F)c4n3[C@@H]3C[C@@H]3F)cc3ccc1nc32 = 7.57

Let us examine a further case.
*Q* So what's the measured pIC50 for this one? COc1cc(C(=O)N2CC[C@@H]3OCCN[C@@H]3C2)cc2nc(-c3cc4ccc5nc4n3C[C@H]3C[C@H]3COCCC(=O)N[C@@H]5C)n(C)c12 (single isomer, unassigned)
*A* 5.48

====

Each entry below carries its reported IC50.
tgt: human PAD4 (Homo sapiens, UniProt Q9UM07)
Construct: human PAD4 (NM_012387), A2-P663, was PCR amplified; His-SUMO (N, cleaved yes)
experiment: In vitro PAD4 BAEE biochemical assay
conditionLabel: BAEE substrate 3 mM, 5 nM PAD4, 2 mM calcium chloride; geometric mean of multiple experiments
Answer format: numeric, nM implied, no suffix.

Reference set, count: 2
COc1cc(C(=O)N2C[C@H](N)[C@@H]3CC[C@H]2C3)cc2nc(-c3cc4ccc5nc4n3CCCCCCC(C)(C)C(=O)N[C@@H]5C)c(C)n12 = 51
COc1cc(C(=O)N2CCC[C@@H](N)C2)cc2nc(-c3cc4ccc5nc4n3CCCCCCNC(=O)c3ncccc3-5)n(C)c12 = 277

Let us examine a further case.
*Q* So what's the measured IC50 for this one? `COc1cc(C(=O)N2C[C@H](N)[C@@H]3CC[C@H]2C3)cc2nc(-c3cc4ccc5nc4n3CCCCC[C@H]3[C@H](C(=O)N[C@@H]5C)C3(F)F)n(C)c12`
*A* 5

====

tgt: human PAD4 (Homo sapiens)
Construct: human PAD4 (NM_012387), A2-P663, was PCR amplified; His-SUMO (N, cleaved yes)
experiment: In vitro PAD4 BAEE biochemical assay
conditionLabel: BAEE substrate 3 mM, 5 nM PAD4, 2 mM calcium chloride; geometric mean of multiple experiments
assayMetric: IC50 (nM)
Answer format: numeric, nM implied, no suffix.

*Q* So what's the measured IC50 for this one? COc1cc(C(=O)N2C[C@H](N)[C@@H]3CC[C@H]2C3)cc2nc(-c3cc4ccc5nc4n3CCCCCc3nccnc3C(=O)N[C@@H]5C)n(C)c12 [Example 484]
*A* 44

*Q* So what's the measured IC50 for this one? COc1cc(C(=O)N2[C@H]3CC[C@@H]2[C@H](N)C3)cc2nc(-c3cc4ccc5nc4n3CCCCCn3ccc(n3)C(=O)N[C@@H]5C)c(C)n12 [Example 33]
*A* 248

*Q* So what's the measured IC50 for this one? C[C@H]1NC(=O)c2cccnc2CCCCCn2c(-c3nc4cc(C(=O)N[C@H]5CNCC[C@@H]5F)c(F)cc4n3C)cc3ccc1nc32 [Example 401]
*A* 90

*Q* So what's the measured IC50 for this one? COc1cc(C(=O)N2C[C@H](N)[C@@H]3CC[C@H]2C3)cc2nc(-c3cc4ccc5nc4n3CCCCCc3nc(C(F)F)ccc3C(=O)N[C@@H]5C)c(C)n12 [Example 777]
*A* 17

*Q* So what's the measured IC50 for this one? COc1cc(C(=O)N[C@H]2CNCC[C@@H]2F)cc2nc(-c3cc4ccc5nc4n3CCCCCc3nn(C)nc3C(=O)N[C@@H]5C)n(C)c12 [Example 185]
*A* 66

*Q* So what's the measured IC50 for this one? COc1cc(C(=O)N2C[C@H](N)[C@@H]3CC[C@H]2C3)cc2nc(-c3cc4ccc5nc4n3CCCCCc3nc(Cl)ccc3C(=O)NC5(C)C)n(C)c12 [Example 932]
*A* 58

*Q* So what's the measured IC50 for this one? C[C@H]1NC(=O)[C@H]2[C@@H](CCCCCn3c(-c4nc5cc(C(=O)N[C@H]6CNCC[C@@H]6F)c(F)cc5n4C4CC4)cc4ccc1nc43)C2(F)F [Example 392]
*A* 22

*Q* So what's the measured IC50 for this one? C[C@H]1NC(=O)[C@@H]2[C@@H](CCCC(F)(F)Cn3c(-c4nc5cc(C(=O)N[C@H]6CNCC[C@@H]6F)c(F)cc5n4C4CC4)cc4ccc1nc43)C2(F)F [Example 390]
*A* 88

*Q* So what's the measured IC50 for this one? C[C@@H]1[C@H](N)CCCN1C(=O)c1cc(F)c2c(c1)nc(-c1cc3ccc4nc3n1CCCCCc1ncc3ccccc3c1C(=O)N[C@@H]4C)n2C1CC1 [Example 748]
*A* 25

*Q* So what's the measured IC50 for this one? COc1cc(C(=O)N2C[C@H](N)[C@@H]3CC[C@H]2C3)cc2nc(-c3cc4ccc5nc4n3CCCCCOC3(CC3)C(=O)N[C@@H]5C)n(C)c12 [Example 910]
*A* 49

*Q* So what's the measured IC50 for this one? C[C@H]1NC(=O)[C@@H]2C[C@@H]2CCCC(F)(F)Cn2c(-c3nc4cc(C(=O)N5C[C@H](N)[C@@H]6CC[C@H]5C6)cc(F)c4n3C3CC3)cc3ccc1nc32 [Example 682]
*A* 28

====

tgt: human PAD4 (Homo sapiens)
Construct: human PAD4 (NM_012387), A2-P663, was PCR amplified; His-SUMO (N, cleaved yes)
experiment: In vitro PAD4 BAEE biochemical assay
conditionLabel: BAEE substrate 3 mM, 5 nM PAD4, 2 mM calcium chloride; geometric mean of multiple experiments
assayMetric: IC50

Reference set, count: 5
C[C@H]1NC(=O)[C@@H]2C[C@H]2CCCCCn2c(-c3nc4cc(C(=O)N[C@H]5CNCC[C@@H]5F)c(F)cc4n3CC3(F)CC3)cc3ccc1nc32 [Example 405] = 27 nM
CO[C@@H]1CCN(C(=O)c2ccc3c(c2)nc(-c2cc4ccc5nc4n2CC(F)(F)CCC[C@@H]2C[C@H]2C(=O)N[C@@H]5C)n3C2CC2)C[C@@H]1N [Example 690] = 54 nM
C[C@H]1NC(=O)c2ccc(Cl)nc2CCCCCn2c(-c3nc4cc(C(=O)N5C[C@H](N)CC[C@@H]5C)cc(F)c4n3C3CC3)cc3ccc1nc32 [Example 807] = 31 nM
COc1cc(C(=O)N2CC[C@@H](OC)[C@@H](N)C2)cc2nc(-c3cc4ccc5nc4n3CCCCC[C@@H]3C[C@H]3C(=O)NC5(C)C)n(C)c12 [Example 782] = 63 nM
CO[C@@H]1CCN(C(=O)c2cc(F)c3c(c2)nc(-c2cc4ccc5nc4n2CC(F)(F)CCC[C@@H]2C[C@H]2C(=O)N[C@@H]5C)n3C)C[C@@H]1N [Example 738] = 48 nM

*Q* So what's the measured IC50 for this one? C[C@H]1NC(=O)c2nn(C)nc2CCCCCn2c(-c3nc4cc(C(=O)N[C@H]5CNCC[C@@H]5F)c(F)cc4n3C)cc3ccc1nc32 [Example 546]
*A* 59 nM

*Q* So what's the measured IC50 for this one? COc1cc(C(=O)N[C@H]2CNCC[C@@H]2F)cc2nc(-c3cc4ccc5nc4n3CCCCCc3cnn(C)c3C(=O)N[C@@H]5C)n(C)c12 [Example 181]
*A* 171 nM

====

tgt: human PAD4 (Homo sapiens)
Construct: human PAD4 (NM_012387), A2-P663, was PCR amplified; His-SUMO (N, cleaved yes)
experiment: In vitro PAD4 BAEE biochemical assay
conditionLabel: BAEE substrate 3 mM, 5 nM PAD4, 2 mM calcium chloride; geometric mean of multiple experiments
Each entry below carries its reported pIC50.
The scale used: pIC50 is minus the common logarithm of the concentration in molar units.

Reference set, count: 4
COc1cc(C(=O)N2CCC[C@@H](N)C2)cc2nc(-c3cc4ccc5cc4n3CCCCC[C@@H]3C[C@H]3C(=O)N[C@@H]5C)n(C)c12 = 6.63
C[C@H]1NC(=O)[C@@H]2C[C@H]2CCCCCn2c(-c3nc4cc(C(=O)N[C@H]5CNCC[C@@H]5F)c(F)cc4n3CCOC(F)(F)F)cc3ccc1nc32 = 7.17
COc1cc(C(=O)N2CC[C@@H](OC)[C@@H](N)C2)cc2nc(-c3cc4ccc5nc4n3CC(F)(F)CCC[C@@H]3C[C@H]3C(=O)N(C)[C@@H]5C)n(C)c12 = 7.57
COc1cc(C(=O)N2CC[C@@H](OC)[C@@H](N)C2)cc2nc(-c3cc4ccc5nc4n3CCCCCC[C@](C)(C(F)(F)F)C(=O)N[C@@H]5C)n(C)c12 = 7.19

*Q* So what's the measured pIC50 for this one? `COc1cc(C(=O)N2[C@H]3CC[C@@H]2[C@H](N)C3)cc2nc(-c3cc4ccc5nc4n3CCCCCCCC3(CC3)C(=O)N[C@@H]5C)n(C)c12`
*A* 7.06

*Q* So what's the measured pIC50 for this one? `COc1cc(C(=O)N2CC[C@@H](OC(F)F)[C@@H](N)C2)cc2nc(-c3cc4ccc5nc4n3CC(F)(F)CCCCC(C)(C)C(=O)N[C@@H]5C)n(C)c12`
*A* 6.76
